compounds and their reported Excess HSA synergy score
# Test system: PEO-1
# Measurement Notes: Excess HSA synergy score (sum over dose matrix of excess over highest single agent) (score (summed % response)); higher = less synergy / more antagonism (negative = synergy)
# Experimental Context: 72 h; read-out: viability/apoptosis luminescence (CellTiter-Glo or Caspase3-Glo / not stated per table); matrix design: 6x6, 5-fold dilutions (primary screen)
Over roughly 1,500 compounds, “Excess HSA synergy score (sum over dose matrix of excess over highest single agent)” has its median near 43; the lowest 2% begin near -900. Shown is part of a subset that was picked to be rich in the lowest values.

Compound	Excess HSA synergy score
Nc1ccc(-c2ccc3ncc4ccc(=O)n(-c5cccc(C(F)(F)F)c5)c4c3c2)cn1 [Torin-2] + CC[C@H](NC(=O)[C@H](C)NC)C(=O)N1C[C@@H](O)C[C@H]1Cc1c(-c2[nH]c3cc(F)ccc3c2C[C@@H]2C[C@H](O)CN2C(=O)[C@H](CC)NC(=O)[C@H](C)NC)[nH]c2cc(F)ccc12	-80.4
CCCCCN(CCC12CC3CC(CC(C3)C1)C2)C(=O)NCCCc1ccncc1 + CC[C@H](NC(=O)[C@H](C)NC)C(=O)N1C[C@@H](O)C[C@H]1Cc1c(-c2[nH]c3cc(F)ccc3c2C[C@@H]2C[C@H](O)CN2C(=O)[C@H](CC)NC(=O)[C@H](C)NC)[nH]c2cc(F)ccc12	297
CCC(=O)N1CCN(c2ccc(-n3c(=O)ccc4cnc5ccc(-c6cnc7ccccc7c6)cc5c43)cc2C(F)(F)F)CC1 [Torin-1] + CC[C@H](NC(=O)[C@H](C)NC)C(=O)N1C[C@@H](O)C[C@H]1Cc1c(-c2[nH]c3cc(F)ccc3c2C[C@@H]2C[C@H](O)CN2C(=O)[C@H](CC)NC(=O)[C@H](C)NC)[nH]c2cc(F)ccc12	-195
